As shown below, each of these compounds has a reported pEC50 value.
subjectOfTest: Btk enzyme (His-Btk) (Homo sapiens (Human))
assayProcedure: Btk enzyme activity, IMAP fluorescence polarization assay (Assay Method A)
pEC50: −log10 of the molar value. Counter-ions that a name gives are not always drawn.
resultType: pEC50

compound="CC1(C)CC(c2nc(-c3ccc(C(=O)Nc4cc(C#N)ccn4)cc3)c3c(N)nccn23)CCO1 (centres unmarked) [Example 37]" result="7.00 to 8.00"
compound="Nc1nccn2c(C3CC4CCC3N4C(=O)C3CCCO3)nc(-c3ccc(C(=O)Nc4ccccn4)cc3)c12 (centres unmarked) [Example 146]" result="7.00 to 8.00"
compound="COCCC(=O)N1CCC2(CC1)CC2c1nc(-c2ccc(C(=O)Nc3ccccn3)cc2)c2c(N)nccn12 (centres unmarked) [Example 151]" result="6.00 to 7.00"
compound="CC(C)C1CC(C(=O)N2CCC[C@@H](c3nc(-c4ccc(C(=O)Nc5cc(C(F)(F)F)ccn5)cc4)c4c(N)nccn34)C2)C1 (some centres unmarked) [Example 89]" result="> 8.00"
compound="CC1(C(=O)N2CCC[C@@H](c3nc(-c4ccc(C(=O)Nc5cnccn5)cc4)c4c(N)nccn34)C2)COC1 [Example 290]" result="7.00 to 8.00"
compound="CC(C)(F)C(=O)N1CCC[C@@H](c2nc(-c3ccc(C(=O)Nc4cc(C5CC5)ccn4)cc3)c3c(N)nccn23)C1 [Example 64]" result="> 8.00"
compound="CC1(C(=O)N2CCC[C@@H](c3nc(-c4ccc(C(=O)Nc5cc(C(F)(F)F)ccn5)cc4)c4c(N)ncc(C5CC5)n34)C2)COC1 [Example 303]" result="7.00 to 8.00"
compound="CS(=O)(=O)CCC(=O)N1CCC[C@@H](c2nc(-c3ccc(C(=O)Nc4cc(C(F)(F)F)ccn4)cc3)c3c(N)nccn23)C1 [Example 77]" result="> 8.00"
compound="CC1(C(=O)N2CCC[C@@H](c3nc(-c4ccc(C(=O)Nc5cc(C(F)(F)F)ccn5)cc4)c4c(N)nccn34)C2)CCC1 [Example 70]" result="> 8.00"
compound="COCCC(=O)N1CCC[C@@H](c2nc(-c3ccc(C(=O)Nc4ccccn4)cn3)c3c(N)nccn23)C1 [Example 288]" result="6.00 to 7.00"
compound="Nc1nccn2c([C@@H]3CCCN(CCC(F)(F)F)C3)nc(-c3ccc(C(=O)Nc4ccccn4)cc3)c12 [Example 136, TFA salt]" result="7.00 to 8.00"
compound="Nc1nccn2c([C@@H]3CCCN(C(=O)C4CCOC4)C3)nc(-c3ccc(C(=O)Nc4ccccn4)cc3)c12 (some centres unmarked) [Example 56, TFA salt]" result="7.00 to 8.00"
compound="CC(CNC(=O)C1(C)COC1)c1nc(-c2ccc(C(=O)Nc3cc(C(F)(F)F)ccn3)cc2)c2c(N)nccn12 (centres unmarked) [Example 131]" result="> 8.00"
compound="CC(C)(F)C(=O)N1CCC[C@@H](n2nc(-c3ccc(C(=O)Nc4cc(C(F)(F)F)ccn4)cc3)c3c(N)ncnc32)C1 [Example 270]" result="7.00 to 8.00"

###

subjectOfTest: Btk enzyme (His-Btk) (Homo sapiens (Human), UniProt Q06187)
Sequence (Q06187 whole entry): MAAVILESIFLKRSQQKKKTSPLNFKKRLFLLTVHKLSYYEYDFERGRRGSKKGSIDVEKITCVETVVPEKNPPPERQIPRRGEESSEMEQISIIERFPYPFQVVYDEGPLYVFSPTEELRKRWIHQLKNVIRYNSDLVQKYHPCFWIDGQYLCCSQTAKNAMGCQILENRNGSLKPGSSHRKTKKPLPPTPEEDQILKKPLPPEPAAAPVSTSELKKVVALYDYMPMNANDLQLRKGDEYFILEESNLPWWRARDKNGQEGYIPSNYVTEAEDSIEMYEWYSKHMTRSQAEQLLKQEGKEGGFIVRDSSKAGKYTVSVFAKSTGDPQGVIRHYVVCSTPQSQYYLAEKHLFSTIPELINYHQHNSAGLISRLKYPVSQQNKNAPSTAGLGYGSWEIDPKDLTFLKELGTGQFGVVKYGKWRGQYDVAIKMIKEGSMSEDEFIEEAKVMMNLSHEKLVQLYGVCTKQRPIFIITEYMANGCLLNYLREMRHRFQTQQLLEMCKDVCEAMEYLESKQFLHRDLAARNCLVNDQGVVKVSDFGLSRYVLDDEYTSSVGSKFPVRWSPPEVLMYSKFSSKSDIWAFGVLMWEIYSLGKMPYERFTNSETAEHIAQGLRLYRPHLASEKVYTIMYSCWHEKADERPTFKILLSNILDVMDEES
assayProcedure: Btk enzyme activity, IMAP fluorescence polarization assay (Assay Method A)
measurementSetup: read-out: EC50 Btk activity values - Assay Method A; IMAP-FP, 60 min pre-incubation, 5 μM ATP; class 100-1000 is given as ≧100 nM-<1 μM
pEC50: −log10 of the molar value. Counter-ions that a name gives are not always drawn.
As shown below, each of these compounds has a reported pEC50 value.
resultType: pEC50

compound="CC(C)(F)C(=O)N1CCOC(c2nc(-c3ccc(C(=O)Nc4cc(C(F)(F)F)ccn4)cc3)c3c(N)nccn23)C1 (stereo not shown) [Example 174]" subjectoftest="Btk enzyme (His-Btk) (Homo sapiens (Human), UniProt Q06187)" result="> 8.00"
compound="CCNC(=O)C1CCCN(c2nc(-c3ccc(C(=O)Nc4cc(C(F)(F)F)ccn4)cc3)c3c(N)nccn23)C1 (stereo not shown) [Example 236, TFA salt]" subjectoftest="Btk enzyme (His-Btk) (Homo sapiens (Human), UniProt Q06187)" result="> 8.00"
compound="CCCc1ccnc(NC(=O)c2ccc(-c3nc([C@H]4CC[C@H](O)CC4)n4ccnc(N)c34)c(C)c2)c1 [Example 10]" subjectoftest="Btk enzyme (His-Btk) (Homo sapiens (Human), UniProt Q06187)" result="> 8.00"
compound="COCCNC(=O)C1CCCN(c2nc(-c3ccc(C(=O)Nc4cc(C(F)(F)F)ccn4)cc3)c3c(N)nccn23)C1 (stereo not shown) [Example 232, TFA salt]" subjectoftest="Btk enzyme (His-Btk) (Homo sapiens (Human), UniProt Q06187)" result="> 8.00"
compound="CC1(C(=O)N2CCC[C@@H](c3nc(-c4ccc(C(=O)Nc5cc(C(F)(F)F)ccn5)cc4)c4c(N)ncnn34)C2)COC1 [Example 261]" subjectoftest="Btk enzyme (His-Btk) (Homo sapiens (Human), UniProt Q06187)" result="> 8.00"
compound="CO[C@H]1CC[C@@H](c2nc(-c3ccc(C(=O)Nc4cc(C(F)(F)F)ccn4)cc3)c3c(N)nccn32)CC1 [Example 40]" subjectoftest="Btk enzyme (His-Btk) (Homo sapiens (Human), UniProt Q06187)" result="> 8.00"
compound="CCNC(=O)N1C[C@H](c2nc(-c3ccc(C(=O)Nc4cc(C(F)(F)F)ccn4)cc3)c3c(N)nccn23)CC[C@H]1C (relative stereo) [Example 186, TFA salt]" subjectoftest="Btk enzyme (His-Btk) (Homo sapiens (Human), UniProt Q06187)" result="> 8.00"
compound="CCNC(=O)N1CCOC(c2nc(-c3ccc(C(=O)Nc4cc(C(F)(F)F)ccn4)cc3)c3c(N)nccn23)C1 (stereo not shown) [Example 178]" subjectoftest="Btk enzyme (His-Btk) (Homo sapiens (Human), UniProt Q06187)" result="> 8.00"
compound="CC(C)C(=O)N1C[C@H](c2nc(-c3ccc(C(=O)Nc4ccccn4)cc3)c3c(N)nccn23)CC[C@@H]1C (relative stereo) [Example 205, TFA salt]" subjectoftest="Btk enzyme (His-Btk) (Homo sapiens (Human), UniProt Q06187)" result="> 8.00"
compound="COCCC(=O)N[C@@H]1CCC[C@@H](c2nc(-c3ccc(C(=O)Nc4cc(C(F)(F)F)ccn4)cc3)c3c(N)nccn23)C1 (relative stereo) [Example 166]" subjectoftest="Btk enzyme (His-Btk) (Homo sapiens (Human), UniProt Q06187)" result="> 8.00"
